Sourced from patent US20260335313A1

Molecular target: CDK9/CyclinT1 (Homo sapiens)
Test: CDK9/T1 ADPGlo Activity (ADP Glo Kinase assay, inhibitory activity)
Settings: CDK9/CyclinT1 f.c. 6 nM; PDKtide 40 microM; ATP 10 microM; 10 min preincubation, 120 min at RT; 12 concentrations, 1:3 dilution from 5 microM
Description: ASSAY PROTOCOL for Determination of Inhibitory Activity The testing compound was evaluated in 12 concentrations in a 1:3 dilution series, starting from 5microM as the highest concentration. […] After incubation time, 5 microL of ADP Glo reagent (ready to use, ADP Glo Kinase assay, Promega GmbH, Germany #V9102) were added, mixed and incubated for 40 min at RT. […] GloMax Discover GM3000 Reader (Promega GmbH, Germany 9700000249) was used for the readout. […]
pIC50: −log10 of the molar value.
# pIC50 per entry

// worked examples, pIC50 included
INSERT INTO assay_data (compound, val) VALUES
  ('CN1CCC(Nc2cc(-c3c(F)cccc3F)nn3c(Cl)cnc23)CC1', '> 7.70'),
  ('CN(C)[C@H]1CC[C@H](Nc2cc(-c3c(F)cccc3F)nn3c(Cl)cnc23)CC1', '> 6.70'),
  ('CC1CN(C(=O)OC(C)(C)C)CCC1Nc1cc(-c2c(F)cccc2F)nn2c(Cl)cnc12 (racemic)', '> 6.70'),
  ('CC1CNCCC1Nc1cc(-c2c(F)cccc2F)nn2c(Cl)cnc12 (racemic)', '> 6.70'),
  ('CN1CCN([C@H]2CC[C@H](Nc3cc(-c4c(F)cccc4F)nn4c(Cl)cnc34)CC2)CC1', '> 6.70'),
  ('CS(=O)(=O)N1CCC(Nc2cc(-c3c(F)cccc3F)nn3c(Cl)cnc23)CC1', '> 7.70'),
  ('Fc1cccc(F)c1-c1cc(NCc2cccnc2)c2ncc(Cl)n2n1', '> 7.70');

Turning now to a further compound:
Data request: Please report pIC50 for the following compound: `N[C@H]1CC[C@H](Nc2cc(-c3c(F)cccc3F)nn3c(Cl)cnc23)CC1`
Data returned: > 6.70

* * *

Target: CDK9/CyclinT1 (Homo sapiens, UniProt P50750)
Sequence (P50750 whole entry): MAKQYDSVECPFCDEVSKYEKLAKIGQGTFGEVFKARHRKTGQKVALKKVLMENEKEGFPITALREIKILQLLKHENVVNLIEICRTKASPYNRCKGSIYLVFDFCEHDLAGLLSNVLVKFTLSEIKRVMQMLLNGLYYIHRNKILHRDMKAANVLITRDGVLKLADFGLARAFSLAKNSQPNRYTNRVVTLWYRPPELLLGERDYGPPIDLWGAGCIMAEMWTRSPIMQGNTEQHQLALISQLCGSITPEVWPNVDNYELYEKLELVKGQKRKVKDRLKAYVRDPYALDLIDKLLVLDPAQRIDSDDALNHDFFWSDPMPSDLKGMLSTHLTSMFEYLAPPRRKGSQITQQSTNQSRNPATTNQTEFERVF
Sequence (O60563 whole entry partner): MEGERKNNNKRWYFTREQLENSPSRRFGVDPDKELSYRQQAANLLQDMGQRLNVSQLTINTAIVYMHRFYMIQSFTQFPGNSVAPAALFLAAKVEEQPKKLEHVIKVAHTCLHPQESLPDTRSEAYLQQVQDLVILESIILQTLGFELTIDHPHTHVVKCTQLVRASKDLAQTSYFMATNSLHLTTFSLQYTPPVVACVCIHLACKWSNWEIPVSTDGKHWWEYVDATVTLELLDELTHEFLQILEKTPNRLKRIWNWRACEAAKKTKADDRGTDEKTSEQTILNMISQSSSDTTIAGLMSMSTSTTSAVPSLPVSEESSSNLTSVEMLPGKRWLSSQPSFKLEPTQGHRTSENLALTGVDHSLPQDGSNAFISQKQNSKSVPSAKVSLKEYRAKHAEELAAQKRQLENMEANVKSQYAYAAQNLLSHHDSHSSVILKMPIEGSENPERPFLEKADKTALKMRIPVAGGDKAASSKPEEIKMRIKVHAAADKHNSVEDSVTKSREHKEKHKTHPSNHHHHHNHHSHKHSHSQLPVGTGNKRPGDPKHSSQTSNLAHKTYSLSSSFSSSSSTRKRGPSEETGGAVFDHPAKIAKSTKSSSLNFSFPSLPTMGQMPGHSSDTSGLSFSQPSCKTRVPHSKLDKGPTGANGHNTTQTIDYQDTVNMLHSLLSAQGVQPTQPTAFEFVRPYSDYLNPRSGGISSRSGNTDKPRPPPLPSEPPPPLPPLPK
Experiment: CDK9/T1 ADPGlo Activity (ADP Glo Kinase assay, inhibitory activity)
Conditions: CDK9/CyclinT1 f.c. 6 nM; PDKtide 40 microM; ATP 10 microM; 10 min preincubation, 120 min at RT; 12 concentrations, 1:3 dilution from 5 microM
# IC50 per entry

// worked examples, IC50 included
INSERT INTO results (compound, readout, val) VALUES
  ('CN1CCC(Nc2cc(-c3c(F)cccc3F)nn3c(Cl)cnc23)C1 (racemic)', 'IC50', '< 20 nM'),
  ('Fc1cccc(F)c1-c1cc(N[C@H]2CC[C@H](N3CCOCC3)CC2)c2ncc(Cl)n2n1', 'IC50', '< 20 nM'),
  ('Cc1cc(C)c(CNc2cc(-c3c(F)cccc3F)nn3c(Cl)cnc23)cn1', 'IC50', '< 20 nM'),
  ('NC1CCC(Nc2c(Cl)c(-c3c(F)cccc3F)nn3c(Cl)cnc23)CC1 (centres unmarked)', 'IC50', '< 200 nM');

Turning now to a further compound:
Data request: Please report IC50 for the following compound: CC1CN(S(C)(=O)=O)CCC1Nc1cc(-c2c(F)cccc2F)nn2c(Cl)cnc12 (racemic)
Data returned: < 200 nM
